- assayed.target: Rabbit cardiac α-tropomyosin (rabbit, UniProt P58772 1-284)
- procedure.summary: SPR
measured.metric: koff (s⁻¹)

Ask: Would you mind telling me what koff value was observed for SKTRGKAKVTGRWK (peptide, UniProt P45379-6 275-288, looked up) ?
Result: 0.0374

Ask: // next record SKTCGKAKVTGRWK (peptide, UniProt P45379-6 275-288, looked up) [Human cTnT-C14 peptide containing HCM-linked mutation R278C]
Result: 0.0219

a = SKTRGNAKVTGRWK (peptide, UniProt P45379-6 275-288, looked up) [Human cTnT-C14 peptide containing HCM-linked mutation K280N]
b = SKTRGKAKVTGCWK (peptide, UniProt P45379-6 275-288, looked up) [Human cTnT-C14 peptide containing HCM-linked mutation R286C]
Ask: Which value of koff is numerically greater: that of a or that of b ? Give the chosen item's label as your response.
Result: a
